Provide the recorded pIC50 for the entries that follow.
molecular target: Full-length, GST-tagged, human CaMKIIδ (Homo sapiens, UniProt Q13557); construct: Full-Length, Glutathione-S-Transferase(GST)-Tagged, Human CaMKIIδ was purchased from Carna Biosciences; purchased Carna Biosciences 02-111; assay: CaMKIIδ binding assay (TR-FRET with BODIPY-labeled probe ligand); settings: CaMKIIδ binding assay; activity class per Table 2
Sequence (Q13557 1-478 isoform Q13557-12): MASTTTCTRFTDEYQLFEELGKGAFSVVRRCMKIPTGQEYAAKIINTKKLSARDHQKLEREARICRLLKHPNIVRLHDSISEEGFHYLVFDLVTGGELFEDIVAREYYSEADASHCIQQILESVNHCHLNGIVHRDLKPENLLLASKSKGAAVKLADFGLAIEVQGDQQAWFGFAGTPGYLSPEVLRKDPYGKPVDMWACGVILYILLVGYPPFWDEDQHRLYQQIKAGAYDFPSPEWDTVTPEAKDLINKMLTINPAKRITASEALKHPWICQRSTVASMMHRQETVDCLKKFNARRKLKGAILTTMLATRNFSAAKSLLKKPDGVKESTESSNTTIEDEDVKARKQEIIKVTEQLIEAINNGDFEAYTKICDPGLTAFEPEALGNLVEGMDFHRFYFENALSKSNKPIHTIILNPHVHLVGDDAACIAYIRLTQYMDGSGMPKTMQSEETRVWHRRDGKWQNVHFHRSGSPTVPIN
pIC50: −log10 of the molar value.

# smiles.structure, measured.value
measured = [
    ("C[C@@H](Cn1cnnn1)Oc1cc(-c2cnc(Nc3cn(Cc4ccc(=O)[nH]c4)nc3OCC(F)(F)F)nc2)ccc1Cl", "> 8.00"),
    ("C[C@@H](Cn1cnnn1)Oc1cc(-c2cnc(Nc3cn(C(C)(C)C(=O)O)nc3OCC(F)(F)F)nc2)ccc1Cl", "7.00 to 8.00"),
]

Proceeding to the next compound to report its pIC50.
(Q) # return pIC50 for C[C@@H](Cn1cnnn1)Oc1cc(-c2cnc(Nc3cn(C4CC5(C4)CN(CCC(F)(F)F)C5)nc3OCC(F)(F)F)nc2)ccc1Cl , test system: Full-length, GST-tagged, human CaMKIIδ (Homo sapiens, UniProt Q13557)
(A) > 8.00

###

biological target: Full-length, GST-tagged, human CaMKIIδ (Homo sapiens, UniProt Q13557); construct: Full-Length, Glutathione-S-Transferase(GST)-Tagged, Human CaMKIIδ was purchased from Carna Biosciences; purchased Carna Biosciences 02-111; assay: CaMKIIδ binding assay (TR-FRET with BODIPY-labeled probe ligand); details: CaMKIIδ binding assay, results of Table 2
Exercise: state measured IC50 for each of the compounds provided.

Completed entries (count: 3):
# smiles.structure, measured.value
rows = [
    ("C[C@@H](Cn1cnnn1)Oc1cc(-c2cnc(Nc3cn(C4CCN(C5CCOCC5)CC4)nc3C(F)(F)F)nc2)ccc1Cl", "< 10 nM"),
    ("COc1cc2c(cc1Nc1ncc(-c3ccc(Cl)c(O[C@@H](C)Cn4cnnn4)c3)cn1)CN(C(=O)COC(C)=O)CC2", "10 to 100 nM"),
    ("COc1cc2c(cc1Nc1ncc(-c3ccc(Cl)c(O[C@@H](C)Cn4cnnn4)c3)cn1)CN(C1COC1)CCO2", "≥ 100 nM"),
]

Next:
(Q) Lab note: Full-length, GST-tagged, human CaMKIIδ (Homo sapiens, UniProt Q13557) assay, enter IC50 for COc1cc2c(cc1Nc1ncc(-c3ccc(Cl)c(O[C@@H](C)Cn4cnnn4)c3)cn1)C(=O)N(C1CCOCC1)C2 here
(A) 10 to 100 nM

###

Please go through the items and note down their pIC50.
target: Full-length, GST-tagged, human CaMKIIδ (Homo sapiens, UniProt Q13557); construct: Full-Length, Glutathione-S-Transferase(GST)-Tagged, Human CaMKIIδ was purchased from Carna Biosciences; purchased Carna Biosciences 02-111; assay: CaMKIIδ binding assay (TR-FRET with BODIPY-labeled probe ligand); conditions: CaMKIIδ binding assay, results of Table 2
pIC50: −log10 of the molar value.

Example cases with answers are listed next.
# compound, measured.value
rows = [
    ("COc1cc2c(cc1Nc1ncc(-c3ccc(Cl)c(O[C@@H](C)Cn4cnnn4)c3)cn1)CCNC2", "> 8.00"),
    ("C[C@@H](Cn1cnnn1)Oc1cc(-c2cnc(Nc3cn(C4CCN(C5CCOCC5)CC4)nc3C3CC3)nc2)ccc1C#N", "> 8.00"),
    ("COc1cc(C2=CCN(C3COC3)CC2)c(C)cc1Nc1ncc(-c2ccc(Cl)c(O[C@@H](C)Cn3cnnn3)c2)cn1", "7.00 to 8.00"),
    ("C[C@@H](Cn1cnnn1)Oc1cc(-c2cnc(Nc3cn(C4CCNCC4)nc3C(F)(F)F)nc2)ccc1Cl", "> 8.00"),
    ("C[C@@H](Cn1cnnn1)Oc1cc(-c2cnc(Nc3cn(C4CCN(CC5CC5)CC4)nc3C(F)(F)F)nc2)ccc1Cl", "> 8.00"),
]

Below is a list of compounds. For each, state its recorded pIC50.
1. COc1cc2c(cc1Nc1ncc(-c3ccc(Cl)c(O[C@@H](C)Cn4cnnn4)c3)cn1)CN(C(=O)CN1CCOCC1)CC2
2. COc1cc2c(cc1Nc1ncc(-c3ccc(Cl)c(O[C@@H](C)Cn4cnnn4)c3)cn1)C(=O)N(CCN(C)C)C2
3. C[C@@H](Cn1cnnn1)Oc1cc(-c2cnc(Nc3cc(N4CCC(N5CCOCC5)CC4)ncc3OC(F)(F)F)nc2)ccc1Cl
4. COc1cc2c(cc1Nc1ncc(-c3ccc(Cl)c(O[C@@H](C)Cn4cnnn4)c3)cn1)CCN(CC(F)F)C2
5. C[C@@H](Cn1cnnn1)Oc1cc(-c2cnc(Nc3cc(N4CCC(N5CCOCC5)CC4)ncc3OC(F)(F)F)nc2)ccc1C#N
6. COc1cc2c(cc1Nc1ncc(-c3ccc(Cl)c(O[C@@H](C)Cn4cnnn4)c3)cn1)CN(C(=O)C(F)(F)F)CC2
7. COc1cc2c(cc1Nc1ncc(-c3ccc(Cl)c(O[C@@H](C)Cn4cnnn4)c3)cn1)CCN(CC(C)=O)C2
8. C[C@@H](Cn1cnnn1)Oc1cc(-c2cnc(Nc3ccc(N4CCC(N5CCOCC5)CC4)cc3C(N)=O)nc2)ccc1Cl

(A)
7.00 to 8.00
7.00 to 8.00
> 8.00
7.00 to 8.00
> 8.00
≤ 7.00
> 8.00
≤ 7.00

Respectfully, I request pIC50 for each entry included below.
1. C[C@@H](Cn1cnnn1)Oc1cc(-c2cnc(Nc3cn(C4CCN(Cc5nccs5)CC4)nc3C(F)(F)F)nc2)ccc1Cl
2. Cc1cc(N2CCC(N3CCOCC3)CC2)ccc1Nc1ncc(-c2ccc(Cl)c(O[C@@H](C)Cn3cnnn3)c2)cn1
3. COc1cc2c(cc1Nc1ncc(-c3ccc(Cl)c(O[C@@H](C)Cn4cnnn4)c3)cn1)CN(C(=O)CN(C)C)CC2
4. C[C@@H](Cn1cnnn1)Oc1cc(-c2cnc(Nc3cn(C4CCN(C5CCOC(C)(C)C5)CC4)nc3C(F)(F)F)nc2)ccc1Cl (stereo partly drawn)
5. C[C@@H](Cn1cnnn1)Oc1cc(-c2cnc(Nc3cn(C4CCN(C5CCOC5)CC4)nc3C(F)(F)F)nc2)ccc1Cl (stereo partly drawn)

(A)
1: 7.00 to 8.00; 2: > 8.00; 3: > 8.00; 4: > 8.00; 5: > 8.00

// each listed compound needs a value for pIC50
1. C[C@@H](Cn1cnnn1)Oc1cc(-c2cnc(Nc3cn(C4CCN(CCO)CC4)nc3C(F)(F)F)nc2)ccc1Cl
2. Cc1ncc(N2CC(O)C2)cc1Nc1ncc(-c2ccc(Cl)c(O[C@@H](C)Cn3cnnn3)c2)cn1

(A)
["> 8.00", "7.00 to 8.00"]

Provide the reported pIC50 of each entry below, same order.
1. COc1cc2c(cc1Nc1ncc(-c3ccc(Cl)c(O[C@@H](C)Cn4cnnn4)c3)cn1)CN(CC1COC1)CC2
2. C[C@@H](Cn1cnnn1)Oc1cc(-c2cnc(Nc3cn(C4CCN(C5CCN(C)CC5)CC4)nc3C(F)(F)F)nc2)ccc1Cl
3. C[C@@H](Cn1cnnn1)Oc1cc(-c2cnc(Nc3cn(C4CCN(Cc5ccccc5)CC4)nc3C(F)(F)F)nc2)ccc1Cl
4. CCc1cc2c(cc1Nc1ncc(-c3ccc(C#N)c(O[C@@H](C)Cn4cnnn4)c3)cn1)CN(C1COC1)CC2
5. C[C@@H](Cn1cnnn1)Oc1cc(-c2cnc(Nc3cc(N4CCN(C5CCOCC5)CC4)ncc3OC(F)(F)F)nc2)ccc1Cl
6. COc1cc2c(cc1Nc1ncc(-c3ccc(Cl)c(O[C@@H](C)Cn4cnnn4)c3)cn1)CN(C1COC1)CC2

(A)
1. > 8.00
2. > 8.00
3. > 8.00
4. 7.00 to 8.00
5. > 8.00
6. > 8.00

(Q) Report measured pIC50; entry is Cc1ccc(N2CCC(N3CCOCC3)CC2)cc1Nc1ncc(-c2ccc(Cl)c(O[C@@H](C)Cn3cnnn3)c2)cn1
(A) > 8.00

###

So I've got a bunch of molecules here, and I need their IC50 values.
target: Full-length, GST-tagged, human CaMKIIδ (Homo sapiens); construct: Full-Length, Glutathione-S-Transferase(GST)-Tagged, Human CaMKIIδ was purchased from Carna Biosciences; purchased Carna Biosciences 02-111; test: CaMKIIδ binding assay (TR-FRET with BODIPY-labeled probe ligand); settings: CaMKIIδ binding assay, results of Table 2

Worked cases, IC50 given:
# smiles.structure, measurement.name, measured.value
data = [
    ("COc1cc2c(cc1Nc1ncc(-c3ccc(Cl)c(O[C@@H](C)Cn4cnnn4)c3)cn1)CCN(C(=O)CN1CCOCC1)C2", "IC50", "< 10 nM"),
    ("C[C@@H](Cn1cnnn1)Oc1cc(-c2cnc(Nc3cc(C4CCNCC4)c(F)cc3F)nc2)ccc1Cl", "IC50", "< 10 nM"),
    ("COc1cc2c(cc1Nc1ncc(-c3ccc(Cl)c(O[C@@H](C)Cn4cnnn4)c3)cn1)CCN(c1ccnc(C)n1)C2", "IC50", "10 to 100 nM"),
    ("COc1cc(C2CCN(C3COC3)CC2)c(C)cc1Nc1ncc(-c2ccc(Cl)c(O[C@@H](C)Cn3cnnn3)c2)cn1", "IC50", "< 10 nM"),
    ("COc1cc2c(cc1Nc1ncc(-c3ccc(Cl)c(O[C@@H](C)Cn4cnnn4)c3)cn1)CCN(C(=O)CN(C)C)C2", "IC50", "< 10 nM"),
    ("COc1ccc(CN2CCS(=O)(=O)CC2)cc1Nc1ncc(-c2ccc(Cl)c(O[C@@H](C)Cn3cnnn3)c2)cn1", "IC50", "10 to 100 nM"),
    ("C[C@@H](Cn1cnnn1)Oc1cc(-c2cnc(Nc3cn(C4CCN(Cc5ccccn5)CC4)nc3C(F)(F)F)nc2)ccc1Cl", "IC50", "< 10 nM"),
    ("C[C@@H](Cn1cnnn1)Oc1cc(-c2cnc(Nc3cn(C4CCN(CC5COC5)CC4)nc3C(F)(F)F)nc2)ccc1Cl", "IC50", "< 10 nM"),
    ("CC(=O)N1CCC(n2cc(Nc3ncc(-c4ccc(Cl)c(O[C@@H](C)Cn5cnnn5)c4)cn3)c(C(F)(F)F)n2)CC1", "IC50", "< 10 nM"),
    ("COc1cc2c(cc1Nc1ncc(-c3ccc(Cl)c(O[C@@H](C)Cn4cnnn4)c3)cn1)CCN(CC(F)(F)F)C2", "IC50", "10 to 100 nM"),
]

# batch size: 2; output IC50 per entry
1. Cc1ncc(N2CCC(N3CCOCC3)CC2)cc1Nc1ncc(-c2ccc(Cl)c(O[C@@H](C)Cn3cnnn3)c2)cn1
2. COc1cc2c(cc1Nc1ncc(-c3ccc(Cl)c(O[C@@H](C)Cn4cnnn4)c3)cn1)N(CC1COC1)CC2

(A)
1: < 10 nM; 2: 10 to 100 nM

Please report IC50 for every entry that follows.
1. CCc1cc2c(cc1Nc1ncc(-c3ccc(Cl)c(O[C@@H](C)Cn4cnnn4)c3)cn1)CN(C1COC1)CC2
2. COc1cc2c(cc1Nc1ncc(-c3ccc(Cl)c(O[C@@H](C)Cn4cnnn4)c3)cn1)CCN(CC1COC1)C2

(A)
1: 10 to 100 nM; 2: < 10 nM
